Molecular target: T1, Murine CD38 on transiently transfected Expi293 cells (Origene MC208001) (murine, UniProt P56528 1-304)
T1 construct: whole, on cells
T1 sequence (looked up): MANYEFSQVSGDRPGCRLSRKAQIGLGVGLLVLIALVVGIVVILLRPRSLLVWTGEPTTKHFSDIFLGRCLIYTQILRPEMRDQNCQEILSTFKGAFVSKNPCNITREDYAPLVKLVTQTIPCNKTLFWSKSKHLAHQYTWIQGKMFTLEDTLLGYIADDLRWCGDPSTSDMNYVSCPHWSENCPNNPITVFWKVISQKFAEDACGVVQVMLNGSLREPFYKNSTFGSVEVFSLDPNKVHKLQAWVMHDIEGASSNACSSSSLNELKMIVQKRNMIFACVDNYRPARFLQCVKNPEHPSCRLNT
Assay: flow cytometry, 10 ug/ml scFv-Fc, transfected Expi293 cells
attribute.measured: FACS percent gated (%)

[[record]]
binder = "40769p2.2.A6 scFv-Fc (scFv, V domains shown, scFv-Fc) VH: EVQLLESGGGLVQPGGSLRLSCAASGFTFSDYEMNWVRQAPGKGLEWVSAISITGSWTYYADSVKGRFTISRDNSENTLYLQMNNLRAEDTAVYYCANYKSYYGMDVWGRGTTVTVSS VL: QSVLTQPPSASGTPGQRVTISCSGSRSNIRNNLVNWYQQLPGTAPKLLIYNTQRPSGVPDRFSGSKSGTSASLAISGLQSEDEADYYCASWDASLNAWVFGGGTKLTVL"
quantitative_result = 2.43

[[record]]
binder = "40769p2.2.E12 scFv-Fc (scFv, V domains shown, scFv-Fc) VH: EVQLLESGGGLIQPGGSLRLSCTASGFDFSSYGMHWVRQAPGKGLEWVGIISDTGGTTYYGDSVKGRFTISRDNSKSTLYLQMNSLRAEDTALYYCASYIMDVWGQGTTVTVSS VL: QSVLTQPPSASGTPGQRVTISCSGSNSNVGDNAVYWYQQPPGTAPKLLFYGTNRRPSGVPDRFSGSKSGTSASLAISGLQSEDEADYYCAAWDDSLNAWVFGGGTKLTVL"
quantitative_result = 35.9

[[record]]
binder = "40769p2.2.A9 scFv-Fc (scFv, V domains shown, scFv-Fc) VH: EVQLLESGGGLVQPGGSLRLSCTASGITFSRFNMFWVRQAPGKGLEFVASIRDDGSWTYYADSVKGQFTISRDNSKNTLYLQMNSLRAEDTAVYYCAKDYNSKDFIYHYVMDVWGQGTTVTVSS VL: QSVLTQPPSASGTPGQRVTISCSGRNSNIGNNVVNWYQQLPGTAPKLLIYRNQERPSGVPDRFSGSKSGTSASLAISGLQSEDEADYYCSTWDDSLNGWVFGGGTKLTVL"
quantitative_result = 1.57

[[record]]
binder = "40769p2.2.D9 scFv-Fc (scFv, V domains shown, scFv-Fc) VH: EVQLLESGGGLVQPGGSLRLSCAGSGFTFSDYWMSWVRQAPGKGLEWVSTISITAGIIYYADSVKGRFTISRDNSKNTLYLQMNSLRAEDTAVYYCAKDNWNDYYGMDVWGQGTTVTVSS VL: QSVLTQPPSASGTPGQRVTVSCSGSRSNIRDNYVYWYQQVPGTAPKLLIYKDDQRPSGVPDRFSGSKSGTSASLVISGLQSEDEADYYCATWDGSLNARVFGGGTKLTVL"
quantitative_result = 2.87

[[record]]
binder = "40769p2.2.A5 scFv-Fc (scFv, V domains shown, scFv-Fc) VH: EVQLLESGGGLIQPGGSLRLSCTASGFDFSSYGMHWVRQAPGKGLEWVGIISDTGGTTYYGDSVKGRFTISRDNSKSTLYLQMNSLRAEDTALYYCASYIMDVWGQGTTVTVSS VL: QSVLTQPPSASGTPGQRVTISCSGSNSNVGDNAVYWYQQLPGTAPKLLFYGTNRRPSGVPDRFSGSKSGTSASLAISGLQSEDEADYYCAAWDDSLNAWVFGGGTKLTVL"
quantitative_result = 35.5

[[record]]
binder = "40769p2.2.D3 scFv-Fc (scFv, V domains shown, scFv-Fc) VH: EVQLLESGGGLIQPGGSLRLSCTASGFDFSSYGMHWVRQAPGKGLEWVGIISDSGGTTYYADSVKGRFTISRDNSKNTLYLQMNSLRAEDTALYYCASYIMDVWGQGITVTVSS VL: QSVLTQPPSASGTPGQRVTISCSGSNSNVGVNSVYWYQQLPGTAPKLLIYGSGRRPSGVPDRFSVSKSGTSASLAISGLQSEDEADYYCAAWDGGLNAWVFGGGTKLTVL"
quantitative_result = 13.1

